Values from ChEMBL document CHEMBL3885861

Item-by-item account of Ca
Species on record: Rattus norvegicus
Test: Open TG-GATES - Regimen: Daily Repeat
Assay type: toxicity, organism-based, Sprague-Dawley
Design: regimen Daily Repeat, gender Male, age 6 weeks
Conditions: in vivo, po, 0 mg/kg, […], tissue Plasma, route gavage, dose level Control, time 14 day
Express the result in mg/dL but write the number alone.

Some solved entries appear below for comparison.
> print(dat)
                                   molecule  readout.unit  observed.measurement
1  COc1ccc2[nH]c([S+]([O-])Cc3ncc(C)c(OC)c3C)nc2c1 (stereo not given) [OMEPRAZOLE]         mg/dL                  10.6
2  CCOc1ccc(NC(=O)CC(C)O)cc1 (stereo not given) [BUCETIN]         mg/dL                  11.1
3  O=C(CCCN1CCC(O)(c2ccc(Cl)cc2)CC1)c1ccc(F)cc1 [HALOPERIDOL]         mg/dL                  10.7
4  CCCNC(=O)NS(=O)(=O)c1ccc(Cl)cc1 [CHLORPROPAMIDE]         mg/dL                  10.7

With those in mind, consider the next molecule.
Asked: Which value of Ca has been reported for CN(C)CCN(Cc1cccs1)c1ccccn1 in the records?
Given back: 10.1

* * *

Item-by-item account of GLC
Species: Rattus norvegicus
Test: Open TG-GATES - Regimen: Single
Type: toxicity, organism-based, Sprague-Dawley
Set-up: regimen Single, gender Male, age 6 weeks
Settings: in vivo, po, 100 mg/kg, 6 h, tissue Plasma, route gavage, dose level Low
Express the result in mg/dL but write the number alone.

Some solved entries appear below for comparison.
Molecule	GLC (mg/dL)
CCOC(=O)CCC(=O)O[C@H]1[C@H](O[C@@H]2[C@@H](C)[C@H](O[C@H]3C[C@@](C)(OC)[C@@H](O)[C@H](C)O3)[C@@H](C)C(=O)O[C@H](CC)[C@@](C)(O)[C@H](O)[C@@H](C)C(=O)[C@H](C)C[C@@]2(C)O)O[C@H](C)C[C@@H]1N(C)C [ERYTHROMYCIN ETHYLSUCCINATE]	187.6
COc1ccc2[nH]c([S+]([O-])Cc3ncc(C)c(OC)c3C)nc2c1 (centres undefined) [OMEPRAZOLE]	197.8
NC(N)=Nc1nc(CSCCC(N)=NS(N)(=O)=O)cs1 [FAMOTIDINE]	189.4

With those in mind, consider the next molecule.
Asked: Which value of GLC has been reported for COC1=CC(=O)C[C@@H](C)[C@]12Oc1c(Cl)c(OC)cc(OC)c1C2=O [GRISEOFULVIN] in the records?
Given back: 200.4

* * *

Organism: Rattus norvegicus
Assay: Open TG-GATES - Regimen: Single
Type: toxicity, organism-based, Sprague-Dawley
Set-up: regimen Single, gender Male, age 6 weeks
Conditions: in vivo, po, 0 mg/kg, 24 h, tissue Blood, route gavage, dose level Control
Reported endpoint: RBC (x10_4/ul)
Express the result in x10_4/ul but write the number alone.

> print(dat)
                                   compound  readout.unit  observed.measurement
1                CN(C)CCN(Cc1cccs1)c1ccccn1      x10_4/ul                 608.2
2  CC/C(=C(\c1ccccc1)c1ccc(OCCN(C)C)cc1)c1ccccc1      x10_4/ul                 605.8
3      NC(N)=Nc1nc(CSCCC(N)=NS(N)(=O)=O)cs1      x10_4/ul                   590
4  CCOc1ccc(NC(=O)CC(C)O)cc1 (stereo not given)      x10_4/ul                 628.8
5  COc1cc2c(c(OC)c1OC)-c1ccc(OC)c(=O)cc1[C@@H](NC(C)=O)CC2      x10_4/ul                 588.4
6                           NNC(=O)c1ccncc1      x10_4/ul                   610
7  CCCNC(=O)NS(=O)(=O)c1ccc(Cl)cc1 [CHLORPROPAMIDE]      x10_4/ul                 602.6
8  C[C@@H]1C[C@H]2[C@@H]3CCC4=CC(=O)C=C[C@]4(C)[C@@]3(F)[C@@H](O)C[C@]2(C)[C@@]1(O)C(=O)CO      x10_4/ul                 611.2
9       CN1C(=O)CN=C(c2ccccc2)c2cc(Cl)ccc21      x10_4/ul                 624.2

With those in mind, consider the next compound.
Asked: Which value of RBC has been reported for O=C(CCCN1CCC(O)(c2ccc(Cl)cc2)CC1)c1ccc(F)cc1 in the records?
Given back: 605.8
